TEST: Aqueous solubility by laser nephelometry
Format: physicochemical
TEST_CONTEXT: comparative solubility
PROPERTY_LABEL: solubility compared with the 3-substituted isoxazol-4-yls of the present invention

q: For the compound O=C(c1ccno1)N1CCN2C(=O)c3cccc(F)c3CC12c1ccc(Cl)cc1 (stereo not shown) [Compound 1-088, reference compound] , what solubility compared with the 3-substituted isoxazol-4-yls of the present invention is on record?
a: less soluble

q: For the compound O=C(c1ccno1)N1CCN2C(=O)c3cccnc3CC12c1ccc(Cl)cc1 (stereo not shown) [Compound 1-100, reference compound] , what solubility compared with the 3-substituted isoxazol-4-yls of the present invention is on record?
a: less soluble

q: For the compound O=C(c1ccno1)N1CCN2C(=O)c3ccccc3CC12c1ccc(Cl)cc1 (stereo not shown) [Compound 1-025, reference compound] , what solubility compared with the 3-substituted isoxazol-4-yls of the present invention is on record?
a: less soluble

q: For the compound O=C(c1ccon1)N1CCN2C(=O)c3cccc(F)c3CC12c1ccc(Cl)cc1 (stereo not shown) [Compound 1-086, reference compound] , what solubility compared with the 3-substituted isoxazol-4-yls of the present invention is on record?
a: less soluble
